- Organism: Rattus norvegicus
- TEST SUMMARY: Ratio of test compound IC50 to losartan IC50 for bocking activity at AT1 receptor in rat aortic vascular smooth muscle cells assessed as inhibition of angiotensin-2-induced calcium flux
READOUT LABEL: Ratio IC50

1. CCCCc1nc(Cl)c(CCCOc2ccc(CC3SC(=O)NC3=O)cc2)n1Cc1ccc(-c2ccccc2-c2nn[nH]n2)cc1 (configuration not stated)
2. CCCCc1nc(Cl)c(/C=C/C(=O)Oc2ccc(C[C@H](Nc3ccccc3C(=O)OC)C(=O)O)cc2)n1Cc1ccc(-c2ccccc2-c2nn[nH]n2)cc1
input: Which is greater in Ratio IC50, the first item 1 or the second item 2 ? In your reply, give the label of the chosen option.
output: 2
(2: 3.8, 1: 0.4)

I. CCCCc1nc(COc2ccc(CC3SC(=O)NC3=O)cc2)cn1Cc1ccc(-c2ccccc2C(=O)O)cc1 (configuration not stated)
II. CCCCc1nc(CCCOc2ccc(CC3SC(=O)NC3=O)cc2)cn1Cc1ccc(-c2ccccc2C(=O)O)cc1 (configuration not stated)
input: Which record would sort first by descending Ratio IC50, I or II ? Mark your answer with the label of the selected entry.
output: II

a. CCCCc1nc(Cl)c(/C=C/C(=O)Oc2ccc(CC3SC(=O)NC3=O)cc2)n1Cc1ccc(-c2ccccc2-c2nn[nH]n2)cc1 (configuration not stated)
b. CCCCCCCCCCCCOCc1c(Cl)nc(CCCC)n1Cc1ccc(-c2ccccc2-c2nn[nH]n2)cc1
input: Hey, between a and b which has a smaller measured Ratio IC50? Output the label that corresponds to your choice.
output: a
(a: 3.2, b: 43.2)
